# TEST METHOD NOTES: Cytotoxicity against African green monkey Vero cells assessed as reduction in cell proliferation after 72 hrs by MTT assay
# Type: cell-based
# COND: chlorocebus sabaeus
MEASURED ATTRIBUTE: CC50 at 72 h (µM)
Write it as a number; the unit µM goes unstated.

Look over these answered cases.
                                   compound  endpoint_unit  measured_result
0  CN(C)c1ncnc2c1ncn2[C@@H]1O[C@H](CO)[C@@H](NC(=O)[C@@H](N)CSCc2ccccc2)[C@H]1O             µM             0.88
1  COc1ccc(C[C@H](N)C(=O)N[C@H]2[C@@H](O)[C@H](n3cnc4c(N(C)C)ncnc43)O[C@@H]2CO)cc1 [PUROMYCIN]             µM              2.8
2  CN(C)c1ncnc2c1ncn2[C@@H]1O[C@H](CO)[C@@H](NC(=O)[C@H](N)CSCc2ccccc2)[C@H]1O             µM               17

Next item in the queue.
## Task Fill in reported CC50 at 72 h for this entry: CN(C)c1ncnc2c1ncn2[C@@H]1O[C@H](CO)[C@@H](NC(=O)[C@H](N)CSC(c2ccccc2)(c2ccccc2)c2ccccc2)[C@H]1O
## Result 15

* * *

Below: a set of entries, each annotated with reported pIC50.
# STUDY TARGET: Aminopeptidase N (Homo sapiens, UniProt P15144)
# Sequence (P15144 whole entry): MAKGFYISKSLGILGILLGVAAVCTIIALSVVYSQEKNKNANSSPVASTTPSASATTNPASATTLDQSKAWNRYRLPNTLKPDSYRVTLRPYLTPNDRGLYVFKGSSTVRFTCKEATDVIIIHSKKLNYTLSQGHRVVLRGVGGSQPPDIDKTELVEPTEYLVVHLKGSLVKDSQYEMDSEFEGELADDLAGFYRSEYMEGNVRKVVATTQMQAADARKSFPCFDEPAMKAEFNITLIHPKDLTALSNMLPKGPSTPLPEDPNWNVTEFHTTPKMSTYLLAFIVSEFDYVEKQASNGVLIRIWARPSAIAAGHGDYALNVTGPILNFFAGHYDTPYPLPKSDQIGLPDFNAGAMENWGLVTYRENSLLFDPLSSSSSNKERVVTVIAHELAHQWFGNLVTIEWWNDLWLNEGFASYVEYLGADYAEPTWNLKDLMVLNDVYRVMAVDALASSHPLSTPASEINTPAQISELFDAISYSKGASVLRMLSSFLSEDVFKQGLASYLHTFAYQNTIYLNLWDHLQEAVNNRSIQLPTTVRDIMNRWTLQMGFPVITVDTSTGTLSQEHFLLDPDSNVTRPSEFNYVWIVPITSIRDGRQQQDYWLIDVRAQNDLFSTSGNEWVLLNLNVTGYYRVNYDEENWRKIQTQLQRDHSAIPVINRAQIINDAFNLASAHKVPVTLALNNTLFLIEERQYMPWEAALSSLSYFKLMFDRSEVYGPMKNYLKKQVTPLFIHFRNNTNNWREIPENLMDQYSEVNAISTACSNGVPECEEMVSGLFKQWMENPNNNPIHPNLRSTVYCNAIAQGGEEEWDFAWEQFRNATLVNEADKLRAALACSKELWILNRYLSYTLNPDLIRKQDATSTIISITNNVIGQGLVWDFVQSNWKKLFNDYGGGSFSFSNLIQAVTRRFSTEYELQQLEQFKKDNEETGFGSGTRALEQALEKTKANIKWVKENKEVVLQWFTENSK
# TEST METHOD NOTES: Inhibition of recombinant human C-terminal His10-tagged APN (Lys69 to Lys967 residues) using Ala-AMC as substrate measured for 30 mins by fluorescence assay
Friendly reminder that pIC50 comes from taking -log10 of the concentration in mol/L.

                                   compound                              study_target  measured_result
0  COc1ccc(C[C@H](N)C(=O)N[C@H]2[C@@H](O)[C@H](n3cnc4c(N(C)C)ncnc43)O[C@@H]2CO)cc1 [PUROMYCIN]  Aminopeptidase N (Homo sapiens, UniProt P15144)             4.39

## Task Fill in reported pIC50 for this entry: CC(C)C[C@@H](C(=O)N[C@H](C(=O)OC1CCCC1)c1ccccc1)[C@H](O)C(=O)NO [TOSEDOSTAT]
## Result 6.17

* * *

# TEST METHOD NOTES: Cytotoxicity against African green monkey Vero cells assessed as reduction in cell proliferation after 72 hrs by MTT assay
# Type: cell-based
# COND: chlorocebus sabaeus
MEASURED ATTRIBUTE: CC50 at 72 h (µM)
Write it as a number; the unit µM goes unstated.

Look over these answered cases.
In [3]: df
Out[3]:
                                   molecule  measured_attribute  measured_result
0  CC(C)C[C@@H](C(=O)N[C@H](C(=O)OC1CCCC1)c1ccccc1)[C@H](O)C(=O)NO [TOSEDOSTAT]        CC50 at 72 h               13
1  CN(C)c1ncnc2c1ncn2[C@@H]1O[C@H](CO)[C@@H](NC(=O)[C@@H](N)Cc2ccccc2)[C@H]1O        CC50 at 72 h              3.2

Next item in the queue.
## Task Fill in reported CC50 at 72 h for this entry: CN(C)c1ncnc2c1ncn2[C@@H]1O[C@H](CO)[C@@H](NC(=O)[C@H](N)CSC(c2ccccc2)c2ccccc2)[C@H]1O
## Result 46
